study.target: Carbonic anhydrase 1 (Homo sapiens) (UniProt P00915)
Sequence (P00915 2-261 limits assumed): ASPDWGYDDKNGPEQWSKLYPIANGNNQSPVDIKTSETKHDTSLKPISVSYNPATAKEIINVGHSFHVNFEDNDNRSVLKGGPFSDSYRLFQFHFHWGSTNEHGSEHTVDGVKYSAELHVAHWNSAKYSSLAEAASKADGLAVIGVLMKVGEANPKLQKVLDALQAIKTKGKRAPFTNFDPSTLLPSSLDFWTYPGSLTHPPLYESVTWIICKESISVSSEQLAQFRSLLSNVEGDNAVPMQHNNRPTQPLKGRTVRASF
assay.notes: Activation of human Carbonic anhydrase I, using histamine as standard
quantity.kind: KA (µM)
Field: numeric (µM). Do not append units.

In: Request body: readout KA, system Carbonic anhydrase 1 (Homo sapiens) (UniProt P00915), query `CCCCc1cc(-c2ccccc2)cc(CCCC)[n+]1-c1ncc[nH]1` . Return the value.
Out: 0.651

In: Now this one: `Cc1cc(C)[n+](-c2cc[nH]n2)c(C)c1`
Out: 0.052

In: Then `Cc1cc(-c2ccccc2)cc(C)[n+]1-c1cc[nH]n1` ?
Out: 0.035

In: Consider next the molecule `Cc1cc(C(C)C)[n+](-c2ncc[nH]2)c(C(C)C)c1` in the same way.
Out: 0.024

In: Also check `c1ccc(-c2cc(-c3ccccc3)[n+](-c3cc[nH]n3)c(-c3ccccc3)c2)cc1`
Out: 32

In: Next: `Cc1cc(-c2ccccc2)cc(-c2ccccc2)[n+]1-c1nn[n-]n1`
Out: 1.1

In: Next molecule up: `CC(C)c1cc(-c2ccccc2)cc(C(C)C)[n+]1-c1nn[n-]n1`
Out: 0.05

In: Next entry: `Cc1cc(-c2ccccc2)cc(C)[n+]1-c1nn[n-]n1`
Out: 0.076

In: Field entry: `CC(C)c1cc(-c2ccccc2)cc(C(C)C)[n+]1-c1ncc[nH]1.[O-][Cl+3]([O-])([O-])[O-]`
Out: 0.012

In: Then `c1ccc(-c2cc(-c3ccccc3)[n+](-c3ncc[nH]3)c(-c3ccccc3)c2)cc1` ?
Out: 15

* * *

Task for the reader: assign each of the following compounds its reported KA.
study.target: Carbonic anhydrase 2 (Homo sapiens) (UniProt P00918)
assay.notes: […] of human Carbonic anhydrase II, using histamine as standard
Express the result in µM but write the number alone.

In: Param readout= KA; system= Carbonic anhydrase 2 (Homo sapiens) (UniProt P00918); entry= `CCCc1cc(-c2ccccc2)cc(CCC)[n+]1-c1ncc[nH]1` ; returns value.
Out: 48

In: Now the compound `CCCc1cc(-c2ccccc2)cc(CCC)[n+]1-c1nn[n-]n1`
Out: 136

In: Another compound: `CC(C)c1cc(-c2ccccc2)cc(C(C)C)[n+]1-c1ncc[nH]1.[O-][Cl+3]([O-])([O-])[O-]`
Out: 0.095

In: How about this compound: `Cc1cc(C)[n+](-c2ncc[nH]2)c(C)c1`
Out: 0.347

In: Another compound to look at: `CCCCc1cc(-c2ccccc2)cc(CCCC)[n+]1-c1ncc[nH]1`
Out: 86

In: Here is the next compound: `CCCc1cc(-c2ccccc2)cc(-c2ccccc2)[n+]1-c1ncc[nH]1`
Out: 130

In: Param item: `Cc1cc(-c2ccccc2)cc(C)[n+]1-c1cc[nH]n1`
Out: 0.359

In: Entry `CCCCc1cc(-c2ccccc2)cc(CCCC)[n+]1-c1nn[n-]n1` please
Out: 145

In: And `CC(C)c1cc(-c2ccccc2)cc(C(C)C)[n+]1-c1cc[nH]n1.[O-][Cl+3]([O-])([O-])[O-]` ?
Out: 0.155

In: Next compound: `CCCc1cc(-c2ccccc2)cc(CCC)[n+]1-c1cc[nH]n1`
Out: 75

In: What do we get for `Cc1cc(-c2ccccc2)cc(C)[n+]1-c1ncc[nH]1.[O-][Cl+3]([O-])([O-])[O-]` ?
Out: 0.153

In: Now the compound `Cc1cc(C)[n+](-c2cc[nH]n2)c(C)c1`
Out: 0.48

In: `CCCc1cc(-c2ccccc2)cc(-c2ccccc2)[n+]1-c1cc[nH]n1` ?
Out: 135

In: Let us now turn to `CCCCc1cc(-c2ccccc2)cc(CCCC)[n+]1-c1cc[nH]n1`
Out: 140

In: Next record, please: `CC(C)c1cc(-c2ccccc2)cc(-c2ccccc2)[n+]1-c1nn[n-]n1`
Out: 134

In: Same question for `NCCc1c[nH]cn1` please.
Out: 125

In: Also need `Cc1c2cc(c(C)[n+]1-c1cc[nH]n1)CCCCCCCCC2` , thanks.
Out: 0.412

In: Then this compound: `CCc1cc(-c2ccccc2)cc(CC)[n+]1-c1cc[nH]n1`
Out: 0.306

In: // repeat for `Cc1cc(C(C)C)[n+](-c2ncc[nH]2)c(C(C)C)c1` and report
Out: 0.13

In: What do you have for `CCc1cc(-c2ccccc2)cc(-c2ccccc2)[n+]1-c1nn[n-]n1` ?
Out: 140

In: // repeat for `Cc1cc(C)[n+](-c2cc[nH]n2)c(-c2ccccc2)c1` and report
Out: 83

In: Likewise for `CCc1cc(-c2ccccc2)cc(CC)[n+]1-c1ncc[nH]1` ?
Out: 0.144

In: Another compound to check: `Cc1c2cc(c(C)[n+]1C1=NCC=N1)CCCCCCCCC2`
Out: 0.305

In: What do we get for `CCCCc1cc(-c2ccccc2)cc(-c2ccccc2)[n+]1-c1ncc[nH]1` ?
Out: 130

In: Again, but for `CC(C)c1cc(-c2ccccc2)cc(C(C)C)[n+]1-c1nn[n-]n1`
Out: 1.15

In: Thanks! And `Cc1cc(C)[n+](-c2ncc[nH]2)c(-c2ccccc2)c1` ?
Out: 59
